Recorded IC50 by entry
- tested_target: T1, APJ (orphan G protein-coupled receptor protein)
- T1 chain: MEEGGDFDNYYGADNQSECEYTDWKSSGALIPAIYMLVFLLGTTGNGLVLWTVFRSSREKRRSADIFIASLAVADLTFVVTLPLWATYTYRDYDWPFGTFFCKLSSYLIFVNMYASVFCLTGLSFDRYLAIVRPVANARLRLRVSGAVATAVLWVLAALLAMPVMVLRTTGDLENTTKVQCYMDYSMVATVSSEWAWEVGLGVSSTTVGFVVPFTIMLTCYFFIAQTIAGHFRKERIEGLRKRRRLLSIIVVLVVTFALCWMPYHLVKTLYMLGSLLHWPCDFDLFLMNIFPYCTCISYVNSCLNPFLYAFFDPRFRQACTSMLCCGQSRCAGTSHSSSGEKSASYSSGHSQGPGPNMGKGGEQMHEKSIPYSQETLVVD
- protocol: radioligand competition, compound of Ref. Ex. 2 as labelled ligand, CHO-A10 membrane fraction
Starred links: 1 amine or outer side, 2 acyl side, 3 side chain; linkers in the order of their positions; H or OH if unused. Non-standard residues stand in square brackets, D forms with d. No end group written: not given here. Pyn = 1-pyrenylalanine, O=C([C@H](Cc1ccc2ccc3cccc4ccc1c2c34)N[*:1])[*:2]; Lys(Me2) = CN(C)CCCC[C@H](N)C(=O)O; Cha = N[C@@H](CC1CCCCC1)C(=O)O
measured_quantity: IC50 (nM)

# binder, unit_label, reading
records = [
    ("RPRLSARGP[Cha][Pyn] (not fully specified; printed as Arg-Pro-Arg-Leu-Ser-Ala-Arg-Gly-Pro-Cha-Pyn, also called Compound in Ex. 60) [Arg-Pro-Arg-Leu-Ser-Ala-Arg-Gly-Pro-Cha-Pyn]", "nM", 0.8),
    ("RP[Lys(Me2)]LSARGPMPF (also called Compound in Ex. 63) [Arg-Pro-Lys(Me)2-Leu-Ser-Ala-Arg-Gly-Pro-Met-Pro-Phe]", "nM", 0.074),
    ("RPRLSARGP[Cha]P[Pyn] (not fully specified; printed as Arg-Pro-Arg-Leu-Ser-Ala-Arg-Gly-Pro-Cha-Pro-Pyn, also called Compound in Ex. 61) [Arg-Pro-Arg-Leu-Ser-Ala-Arg-Gly-Pro-Cha-Pro-Pyn]", "nM", 0.56),
    ("RRQRPRLSARGG[Cha] (not fully specified; printed as Arg-Arg-Gln-Arg-Pro-Arg-Leu-Ser-Ala-Arg-Gly-Gly-Cha, also called Compound in Ex. 62) [Arg-Arg-Gln-Arg-Pro-Arg-Leu-Ser-Ala-Arg-Gly-Gly-Cha]", "nM", 0.14),
]
